Target: corticotropin releasing factor 1 receptor
Assay: cell-based or functional assay
Mark yes only for CRF1R Emax % values smaller than 40%; exact matches and larger values are no.

Reference set, count: 3
binder	discrete label
ZGPPISIDVPYWLLRKVIEIEKQEKEKQQAANNARLLDTI (C-terminal amide) [SEQ ID NO 372]	yes
ZGPPISIDLPTWLLRKMIEIEKQEKEKQQAANNARLLARI (C-terminal amide) [SEQ ID NO 292]	yes
ZGPPISIDLPFFLLRKMIEIEKQEKEKQQAANNRLLLDTI (C-terminal amide) [SEQ ID NO 223]	no

Answer whether the binder ZGPPISIDLPFQLLRKVIEIEKQEKEKQQAANNANLLANI (C-terminal amide) [SEQ ID NO 275] has CRF1R Emax % strictly less than 40%
yes

Is the reported CRF1R Emax % for ZGPPISIDLPFQLLRLLIEIEKQEKEKQQAANNALLLATI (C-terminal amide) [SEQ ID NO 360] strictly below 40%?
no

In plain terms, does ZGPPISIDVPYHLLRKVIEIEKQEKEKQQAANNARLLARI (C-terminal amide) [SEQ ID NO 377] come in under 40% for CRF1R Emax %?
yes
